target: human TMEM16A (TMEM16Aabc variant) (Homo sapiens, UniProt Q5XXA6, DEL476-501); test: Automated whole-cell patch clamp (Qpatch) TMEM16A potentiator assay in recombinant cells; format: cell-based; details: 3.33 μM solution of test compound; percentage increase of baseline TMEM16A current; FRT cells stably expressing human TMEM16A; peak current at +70 mV; intracellular calcium at EC20
Sequence (Q5XXA6 with tags, fused parts or gaps isoform Q5XXA6-5 DEL539-564): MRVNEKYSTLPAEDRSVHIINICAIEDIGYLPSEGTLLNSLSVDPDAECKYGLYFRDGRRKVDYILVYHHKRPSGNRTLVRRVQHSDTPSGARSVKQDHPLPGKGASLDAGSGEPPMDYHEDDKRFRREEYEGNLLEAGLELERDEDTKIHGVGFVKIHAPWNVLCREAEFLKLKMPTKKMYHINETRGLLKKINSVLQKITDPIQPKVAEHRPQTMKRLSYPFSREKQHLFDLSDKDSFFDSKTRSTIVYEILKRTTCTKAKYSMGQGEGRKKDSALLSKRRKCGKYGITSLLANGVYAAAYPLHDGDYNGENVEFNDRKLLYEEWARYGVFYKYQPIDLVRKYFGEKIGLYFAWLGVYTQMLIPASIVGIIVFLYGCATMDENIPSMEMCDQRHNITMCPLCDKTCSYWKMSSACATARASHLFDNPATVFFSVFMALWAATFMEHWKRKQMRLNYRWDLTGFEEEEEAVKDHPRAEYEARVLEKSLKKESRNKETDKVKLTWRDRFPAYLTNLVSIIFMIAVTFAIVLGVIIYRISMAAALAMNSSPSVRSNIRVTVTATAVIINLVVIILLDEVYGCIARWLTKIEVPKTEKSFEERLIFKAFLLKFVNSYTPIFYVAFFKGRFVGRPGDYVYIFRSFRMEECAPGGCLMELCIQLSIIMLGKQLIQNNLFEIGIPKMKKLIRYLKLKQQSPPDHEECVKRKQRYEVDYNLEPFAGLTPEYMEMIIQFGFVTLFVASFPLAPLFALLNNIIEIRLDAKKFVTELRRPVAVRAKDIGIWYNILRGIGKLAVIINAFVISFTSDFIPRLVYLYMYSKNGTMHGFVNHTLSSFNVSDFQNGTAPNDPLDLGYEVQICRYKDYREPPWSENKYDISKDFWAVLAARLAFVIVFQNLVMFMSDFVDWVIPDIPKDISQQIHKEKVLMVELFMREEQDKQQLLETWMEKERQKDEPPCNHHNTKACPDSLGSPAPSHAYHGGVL
reportedProperty: % Potentiation @ 3.33 μM Avg (%)

Look over these answered cases.
CC(C)(C)OC(=O)NCc1nc2cc(NC(=O)CC3C4CC5CC(C4)CC3C5)ccc2[nH]1 (stereo not shown) ... 129.2
COC(c1ccccc1)c1nc2cc(NC(=O)CC3C4CC5CC(C4)CC3C5)ccc2[nH]1 (stereo not shown) ... 194.2
O=C(CC12CC3CC(CC(C3)C1)C2)Nc1ccc2[nH]c(CNC(=O)OCC(F)(F)F)nc2c1 ... 246.3
CC(C)(C)c1cc(F)c(Cc2nc3cc(C(=O)NC4(C(F)(F)F)CC4)ccc3[nH]2)cc1O ... 262
O=C(NCC1CCCCCC1)c1ccc2[nH]c(Cc3ccccc3)nc2c1 ... 137

P = CC(C)(CO)c1cc(F)cc(Cc2nc3cc(C(=O)NCC4(C(F)(F)F)CC4)ccc3[nH]2)c1O
Q = O=C(NCC1CCCCCC1)c1ccc2cn(Cc3ccccc3O)nc2c1
R = CC(C)(O)c1cc(F)c(Cc2nc3cc(C(=O)NCCC(F)(F)F)ccc3[nH]2)cc1O
Problem: # sort list by recorded % Potentiation @ 3.33 μM Avg, greatest to least Lab note: record answer as labels in requested order.
Solution: R, Q, P
(R: 158%, Q: 96.6%, P: 56.6%)
